Recorded values, source the Immune Epitope Database (IEDB).

# assayed target: HLA-A*23:01
# method: IEDB peptide-MHC binding, purified MHC/direct/fluorescence; filed as Kd, often an IC50 or EC50 that approximates it; bounds were set here for any values at or beyond the usual limits of such assays
# conditions: source organism: Vibrio vulnificus CMCP6
outcome measure: pKd
As a rule, pKd stands for the negative log10 of the concentration, concentration in M.

Please indicate pKd recorded for "HWLKVWFEW"
6.92

* * *

# assayed target: HLA-A*02:01
# method: IEDB peptide-MHC binding, purified MHC/direct/fluorescence; filed as Kd, often an IC50 or EC50 that approximates it; bounds were set here for any values at or beyond the usual limits of such assays
# conditions: source organism: Rhizobium wenxiniae
outcome measure: Kd

Using the record for "FHLRSRFAF" , state its measured Kd.
≥ 20 µM
